pIC50: −log10 of the molar value.
Listed here: compounds with reported pIC50 for PAK1 (Homo sapiens, UniProt Q13153).
measured-metric: pIC50

>>> print(df.to_string())
                              smiles_string   assay_value
0  CCn1c(=O)c(-c2ccc(-c3cncnc3)cc2Cl)cc2cnc(Nc3ccc(N4CCNCC4)c(F)c3)nc21        > 7.30
1  CCn1c(=O)c(-c2ccc(-c3ccnc(C(=O)NC)c3)cc2Cl)cc2cnc(Nc3ccc(C4CCNCC4)c(F)c3)nc21  6.30 to 7.30
2  CCn1c(=O)c(-c2nc(C3CCN(C)CC3)sc2C)cc2cnc(Nc3ccc(N4CCN(C)CC4)cc3)nc21        < 5.30
3  CCn1c(=O)c(-c2ccc(-c3cc(C(F)(F)F)ncn3)cc2Cl)cc2cnc(Nc3ccc(C4CCN(C)CC4)cc3)nc21  6.30 to 7.30
4  CN1CCC(c2ccc(Nc3ncc4cc(-c5cc(-c6cccnc6N(C)C)ccc5Cl)c(=O)n(C)c4n3)cc2)CC1  5.30 to 6.30
5  CCn1c(=O)c(-c2ccc(-c3cncnc3)cc2)cc2cnc(Nc3ccc(N4CCN(C)CC4)cc3)nc21  6.30 to 7.30
6  Cc1ccc(-c2cccnc2)cc1-c1cc2cnc(Nc3ccc(C4CCN(C)CC4)cc3)nc2n(C)c1=O  6.30 to 7.30
7  CC(=O)Nc1cc(-c2cc3cnc(Nc4ccc(CCN(C)C)cc4)nc3n(C)c2=O)c(Cl)cc1-c1cccnc1  6.30 to 7.30

----------
pIC50: −log10 of the molar value.
Listed here: compounds with reported pIC50 for UniProtKB O96013.
Sequence (O96013 whole entry): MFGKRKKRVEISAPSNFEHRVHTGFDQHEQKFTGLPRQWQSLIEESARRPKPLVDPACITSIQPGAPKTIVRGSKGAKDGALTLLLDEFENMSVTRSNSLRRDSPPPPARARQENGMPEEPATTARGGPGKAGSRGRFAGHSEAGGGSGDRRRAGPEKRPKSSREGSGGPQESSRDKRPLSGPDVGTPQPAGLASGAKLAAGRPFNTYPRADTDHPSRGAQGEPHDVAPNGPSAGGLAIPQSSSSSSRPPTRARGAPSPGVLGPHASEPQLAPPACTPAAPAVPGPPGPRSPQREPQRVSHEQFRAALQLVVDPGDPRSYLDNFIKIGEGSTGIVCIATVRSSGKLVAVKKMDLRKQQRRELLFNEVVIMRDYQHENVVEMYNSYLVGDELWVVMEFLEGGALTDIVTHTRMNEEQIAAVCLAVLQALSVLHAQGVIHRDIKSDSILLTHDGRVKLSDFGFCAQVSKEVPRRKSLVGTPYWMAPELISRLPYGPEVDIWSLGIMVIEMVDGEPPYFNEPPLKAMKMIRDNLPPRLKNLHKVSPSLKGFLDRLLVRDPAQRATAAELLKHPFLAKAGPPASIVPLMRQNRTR
measured-metric: pIC50

>>> df
                              smiles_string   assay_value
0  CCn1c(=O)c(-c2ccc(-c3ccc(F)nc3C)cc2Cl)cc2cnc(Nc3ccc(C4CCNCC4)c(F)c3)nc21        ≤ 5.30
1  CCn1c(=O)c(-c2ccc(-c3cccnc3C)cc2Cl)cc2cnc(Nc3ccc(C4=CCNCC4)cc3)nc21  5.30 to 6.30
2  CCn1c(=O)c(-c2ccc(-c3ncc(C)s3)cc2C)cc2cnc(Nc3ccc(C4CCN(C)CC4)cc3)nc21  5.30 to 6.30
3  CCn1c(=O)c(-c2ccc(-c3ccnc(C(=O)NC)c3)cc2Cl)cc2cnc(Nc3ccc(N4CCN(C)CC4)cc3)nc21        ≤ 5.30
4  CCOC(=O)c1nc(-c2ccc(-c3cc4cnc(Nc5ccc(N6CCN(C)CC6)cc5)nc4n(CC)c3=O)c(Cl)c2)no1        ≤ 5.30
5  CCn1c(=O)c(-c2ccc(-c3noc(C)n3)cc2Cl)cc2cnc(Nc3ccc(N4CCN(C)CC4)c(F)c3)nc21        ≤ 5.30
6  CCn1c(=O)c(-c2ccc(-c3ccc(C)nc3F)cc2Cl)cc2cnc(Nc3ccc(CCN(C)C)cc3)nc21  5.30 to 6.30
7  CCn1c(=O)c(-c2ccc(-c3ccccn3)s2)cc2cnc(Nc3ccc(N4CCN(C)CC4)cc3)nc21        ≤ 5.30

----------
Listed here: molecules with reported IC50 for PAK2 (PAK65) (Homo sapiens, UniProt Q13177).
measured-metric: IC50

In [3]: df
Out[3]:
                              smiles_string                        measurement_target  assay_value
0  CCn1c(=O)c(-c2ccc(-c3nnn[nH]3)cc2Cl)cc2cnc(Nc3ccc(N4CCN(C)CC4)cc3)nc21  PAK2 (PAK65) (Homo sapiens, UniProt Q13177)    > 5000 nM
1  CCn1c(=O)c(-c2ccc(-c3cccnc3)cc2Cl)cc2cnc(Nc3ccc(C4CCNCC4)c(F)c3)nc21  PAK2 (PAK65) (Homo sapiens, UniProt Q13177)      < 50 nM
2  CCn1c(=O)c(-c2ccc(-c3cccnc3C)cc2Cl)cc2cnc(Nc3ccc(CCN4CCCC4)cc3)nc21  PAK2 (PAK65) (Homo sapiens, UniProt Q13177)      < 50 nM
3  CCn1c(=O)c(-c2ccc(-c3cccnc3C)cc2Cl)cc2cnc(Nc3ccc(C4CCN(C)CC4)cc3)nc21  PAK2 (PAK65) (Homo sapiens, UniProt Q13177)      < 50 nM
4  CCn1c(=O)c(-c2ccc(-c3noc(C)n3)cc2Cl)cc2cnc(Nc3ccc(C4CCN(C)CC4)c(F)c3)nc21  PAK2 (PAK65) (Homo sapiens, UniProt Q13177)      < 50 nM
5  CCN1CCN(c2ccc(Nc3ncc4cc(-c5ccc(-c6cncs6)cc5Cl)c(=O)n(CC)c4n3)cc2F)CC1  PAK2 (PAK65) (Homo sapiens, UniProt Q13177)      < 50 nM
6  CCn1c(=O)c(-c2ccc(-c3cccnc3C)cc2Cl)cc2cnc(Nc3ccc(N4CCN(C)CC4)cc3)nc21  PAK2 (PAK65) (Homo sapiens, UniProt Q13177)      < 50 nM
7  CCn1c(=O)c(-c2ccc(-c3noc(C)n3)cc2Cl)cc2cnc(Nc3ccc(C4CCNCC4)c(F)c3)nc21  PAK2 (PAK65) (Homo sapiens, UniProt Q13177)      < 50 nM
8  CCn1c(=O)c(-c2ccc(-c3ncncc3F)cc2Cl)cc2cnc(Nc3ccc(C4CCN(C)CC4)cc3)nc21  PAK2 (PAK65) (Homo sapiens, UniProt Q13177)      < 50 nM
